Listed here are compounds together with their documented relative viability.
Test system: SYO-1
Assay: relative viability vs DMSO control (72 h) (fraction); higher = more viable cells
Conditions: 0.3704 µM
Lab note: record the figure alone, no unit after it.

Here's what some known entries look like.
O=C(c1ccc(F)c(F)c1Nc1ccc(I)cc1F)N1CC(O)([C@@H]2CCCCN2)C1 [Cobimetinib] ... 0.84
Cc1c2oc3c(C)ccc(C(=O)N[C@@H]4C(=O)N[C@H](C(C)C)C(=O)N5CCC[C@H]5C(=O)N(C)CC(=O)N(C)[C@@H](C(C)C)C(=O)O[C@@H]4C)c3nc-2c(C(=O)N[C@@H]2C(=O)N[C@H](C(C)C)C(=O)N3CCC[C@H]3C(=O)N(C)CC(=O)N(C)[C@@H](C(C)C)C(=O)O[C@@H]2C)c(N)c1=O [Dactinomycin] ... 0.29
COc1cc(N2CCC(N3CCN(C)CC3)CC2)ccc1Nc1ncc(Cl)c(Nc2ccccc2P(C)(C)=O)n1 [Brigatinib] ... 0.501

Prompt: relative viability lookup needed for Cc1cc2c(F)c(Oc3ncnn4cc(OC[C@@H](C)OC(=O)[C@H](C)N)c(C)c34)ccc2[nH]1 [Brivanib_alaninate] , thanks.
Completion: 0.903

---

Listed here are compounds together with their documented relative viability.
Tested on: SK-ES-1
Assay: relative viability vs DMSO control (72 h) (fraction); higher = more viable cells
Settings: 10 µM
Lab note: record the figure alone, no unit after it.

Here's what some known entries look like.
O=C1CCc2c(Oc3ccc4c(c3)[C@@H]3[C@H](O4)[C@H]3c3nc4cc(C(F)(F)F)ccc4[nH]3)ccnc2N1 [Lifirafenib] ... 0.572
COc1cc(Nc2ncc3c(n2)-c2ccc(Cl)cc2C(c2c(F)cccc2OC)=NC3)ccc1C(=O)O [Alisertib] ... 0.0555

Turning now to a further record.
Prompt: relative viability lookup needed for CS(=O)(=O)CCNCc1ccc(-c2ccc3ncnc(Nc4ccc(OCc5cccc(F)c5)c(Cl)c4)c3c2)o1 [Lapatinib] , thanks.
Completion: 0.0529

---

Tested on: RD
Test: relative viability vs DMSO control (72 h) (fraction); higher = more viable cells
Conditions: 1.111 µM
Each record is given yes if its reported relative viability is strictly below 0.9. Records at or above 0.9 are given no.

O=C1CCc2c(Oc3ccc4c(c3)[C@@H]3[C@H](O4)[C@H]3c3nc4cc(C(F)(F)F)ccc4[nH]3)ccnc2N1 [Lifirafenib] ... no

Prompt: Strictly below 0.9 in relative viability? CN(C)CCCOc1ccc(-c2ccc3ncc4c(c3c2)n(C2CCOCC2)c(=O)n4C)cn1 [AZD-0156]
Completion: no

Prompt: What do you have for COC(=O)c1ccc2c(c1)NC(=O)/C2=C(\Nc1ccc(N(C)C(=O)CN2CCN(C)CC2)cc1)c1ccccc1 [Nintedanib] ?
Completion: yes

---

Listed here are compounds together with their documented relative viability.
Tested on: VA-ES-BJ
Assay: relative viability vs DMSO control (72 h) (fraction); higher = more viable cells
Conditions: 0.01372 µM
Lab note: record the figure alone, no unit after it.

Here's what some known entries look like.
COc1cc(N2CCC(N3CCN(C)CC3)CC2)ccc1Nc1ncc(Cl)c(Nc2ccccc2P(C)(C)=O)n1 [Brigatinib] ... 0.983
O=S(=O)(c1cccc2c(O)nccc12)N1CCCNCC1 [Hydroxyfasudil] ... 1.07
C=CC(=O)N1CCC(CNc2ncnc(N)c2-c2ccc(Oc3ccccc3)cc2)CC1 [Evobrutinib] ... 1.09
Cc1cc(F)c(C(=O)Nc2cccc(-c3nncn3C(C)C)n2)cc1-n1cnc(C2CC2)c1 [Selonsertib] ... 0.989

Prompt: Provide the documented relative viability with VA-ES-BJ as the system for COc1cc2ncnc(Nc3ccc(F)c(Cl)c3)c2cc1OCCCN1CCOCC1 [Gefitinib]
Completion: 1.04

Prompt: What do you have for C[C@@H]1CN(C(=O)c2ccc(NC(=O)c3cc(O[C@H](C)c4c(Cl)ccc(F)c4Cl)c(N)nn3)cc2)C[C@H](C)N1 [Ensartinib] ?
Completion: 1.06

Prompt: What do you have for Cn1cnc2c(F)c(Nc3ccc(Br)cc3Cl)c(C(=O)NOCCO)cc21 [Selumetinib] ?
Completion: 0.947

---

Tested on: RD-ES
Experiment: relative viability vs DMSO control (72 h) (fraction); higher = more viable cells
Settings: 1.111 µM
ENDPOINT_NAME: relative viability
Lab note: record the figure alone, no unit after it.

O=C(/C=C\n1cnc(-c2cc(C(F)(F)F)cc(C(F)(F)F)c2)n1)NNc1cnccn1 [Selinexor] ... 0.5

Turning now to a further record.
Prompt: relative viability lookup needed for CS(=O)(=O)CCNCc1ccc(-c2ccc3ncnc(Nc4ccc(OCc5cccc(F)c5)c(Cl)c4)c3c2)o1 , thanks.
Completion: 0.951

---

Tested on: A204
Experiment: standardised AUC of viability dose-response curve (72 h) (fraction (0-1)); higher = less growth inhibition (more resistant)
ENDPOINT_NAME: standardised AUC

Here's what some known entries look like.
CN(C)C/C=C/C(=O)Nc1cc2c(Nc3ccc(F)c(Cl)c3)ncnc2cc1O[C@H]1CCOC1 ... 0.733
Cn1cnc2c(F)c(Nc3ccc(Br)cc3Cl)c(C(=O)NOCCO)cc21 ... 0.953
Cc1cc2c(F)c(Oc3ncnn4cc(OC[C@@H](C)OC(=O)[C@H](C)N)c(C)c34)ccc2[nH]1 [BRIVANIB ALANINATE] ... 0.967
CCS(=O)(=O)N1CC(CC#N)(n2cc(-c3ncnc4[nH]ccc34)cn2)C1 ... 0.962
C=CC(=O)N1CCC(CNc2ncnc(N)c2-c2ccc(Oc3ccccc3)cc2)CC1 ... 0.943

Prompt: standardised AUC lookup needed for CNC(=O)c1cccc2cc(Oc3ccnc4cc(OCC5(N)CC5)c(OC)cc34)ccc12 , thanks.
Completion: 0.585

Prompt: What do you have for COC(=O)c1ccc2c(c1)NC(=O)/C2=C(\Nc1ccc(N(C)C(=O)CN2CCN(C)CC2)cc1)c1ccccc1 ?
Completion: 0.624

Prompt: What do you have for CCOc1cc2ncc(C#N)c(Nc3ccc(OCc4ccccn4)c(Cl)c3)c2cc1NC(=O)/C=C/CN(C)C ?
Completion: 0.755

---

Tested on: VA-ES-BJ
Assay: relative viability vs DMSO control (72 h) (fraction); higher = more viable cells
Settings: 3.333 µM
ENDPOINT_NAME: relative viability
Lab note: record the figure alone, no unit after it.

Here's what some known entries look like.
COc1cc2ncnc(Nc3ccc(F)c(Cl)c3)c2cc1OCCCN1CCOCC1 ... 1.04
COc1cc(Nc2ncc3c(n2)-c2ccc(Cl)cc2C(c2c(F)cccc2OC)=NC3)ccc1C(=O)O ... 0.523
C#Cc1cccc(Nc2ncnc3cc4c(cc23)OCCOCCOCCO4)c1 ... 1.04
O=S(=O)(c1cccc2c(O)nccc12)N1CCCNCC1 [Hydroxyfasudil] ... 1.01
O=C(/C=C\n1cnc(-c2cc(C(F)(F)F)cc(C(F)(F)F)c2)n1)NNc1cnccn1 [Selinexor] ... 0.187
Cc1cc(F)c(C(=O)Nc2cccc(-c3nncn3C(C)C)n2)cc1-n1cnc(C2CC2)c1 ... 0.918
CCS(=O)(=O)N1CC(CC#N)(n2cc(-c3ncnc4[nH]ccc34)cn2)C1 ... 1.06
CN(C)CCCOc1ccc(-c2ccc3ncc4c(c3c2)n(C2CCOCC2)c(=O)n4C)cn1 ... 0.453

Prompt: relative viability lookup needed for O=C1CCc2c(Oc3ccc4c(c3)[C@@H]3[C@H](O4)[C@H]3c3nc4cc(C(F)(F)F)ccc4[nH]3)ccnc2N1 , thanks.
Completion: 1.09

Prompt: What do you have for C[C@@H]1CN(C(=O)c2ccc(NC(=O)c3cc(O[C@H](C)c4c(Cl)ccc(F)c4Cl)c(N)nn3)cc2)C[C@H](C)N1 ?
Completion: 0.489

---

System: VA-ES-BJ
Assay: relative viability vs DMSO control (72 h) (fraction); higher = more viable cells
Settings: 0.3704 µM
ENDPOINT_NAME: relative viability
Lab note: record the figure alone, no unit after it.

CCOc1cc2ncc(C#N)c(Nc3ccc(OCc4ccccn4)c(Cl)c3)c2cc1NC(=O)/C=C/CN(C)C ... 0.734
CNC(=O)c1cccc2cc(Oc3ccnc4cc(OCC5(N)CC5)c(OC)cc34)ccc12 ... 1.13
CCS(=O)(=O)N1CC(CC#N)(n2cc(-c3ncnc4[nH]ccc34)cn2)C1 ... 1.03
Cc1cc2c(F)c(Oc3ncnn4cc(OC[C@@H](C)OC(=O)[C@H](C)N)c(C)c34)ccc2[nH]1 [Brivanib_alaninate] ... 1.04
Cc1[nH]c(/C=C2\C(=O)Nc3ccccc32)c(C)c1CCC(=O)O [Orantinib] ... 1.07
CN(C)CCCOc1ccc(-c2ccc3ncc4c(c3c2)n(C2CCOCC2)c(=O)n4C)cn1 ... 0.674

Turning now to a further record.
Prompt: relative viability lookup needed for Cn1cnc2c(F)c(Nc3ccc(Br)cc3Cl)c(C(=O)NOCCO)cc21 , thanks.
Completion: 0.836
